assay: chemical genetic growth profiling, strain panel (AID 1159580);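 also: tested at 20 µM; growth read once vehicle control cultures reached saturation at 30 °C; 1 = growth at the plate median or of vehicle wells; lower values mean less growth of the strain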; conditions: S. cerevisiae deletion strains, growth OD, locus YDR335W, strain msn5
Screen size: about 5,500 compounds; about 2,000 (36%) were called active. Another 18% or so got no clear call; they are omitted. Rule as the data show it: active = normalized growth mostly below about 0.91 (no sharp cut-off); inconclusive = no clear call, values can overlap the other calls; inactive = mostly above about 0.92. Some of the results follow.
The categories you may choose from are active, inactive

Q: What was the test verdict on CCOc1ccc(Cc2nccc3cc(OCC)c(OCC)cc23)cc1OCC ?
Result: inactive

Q: What was the test verdict on O=C1c2ccccc2C(=O)c2c1ccc(O)c2O ?
Result: active

Q: What was the test verdict on CN1Cc2c(N)cccc2C(c2ccccc2)C1 (stereo unspecified) ?
Result: inactive

Q: What was the test verdict on CC1(C)C[C@@H]2C(=O)CC[C@H]3O[C@]3(C)CC[C@H]21 ?
Result: inactive

Q: What was the test verdict on O=C1c2ccc(O)c(O)c2C(=O)c2c(O)ccc(O)c21 ?
Result: active

Q: What was the test verdict on O=C1c2ccccc2C(=O)c2c(O)c(O)cc(O)c21 ?
Result: active

====

Can you tell me normalized growth for the items I'm about to list?
assay: chemical genetic growth profiling, strain panel (AID 1159580);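 also: tested at 20 µM; growth read once vehicle control cultures reached saturation at 30 °C; 1 = growth at the plate median or of vehicle wells; lower values mean less growth of the strain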; settings: S. cerevisiae deletion strains, growth OD, locus YJR066W, strain TOR1 (second series), active compounds read low
The campaign covered roughly 5,500 compounds. About 2,000 (36%) were called active. Another 18% or so got no clear call; they are omitted. Some of the results follow.
Please reply with the value in numeric form only.

Q: Give the value of normalized growth reported for the following: CC(Oc1ccc(Cl)cc1Cl)C(=O)NNC(=S)Nc1ccccc1 (stereo unspecified)
Result: 0.94

Q: Give the value of normalized growth reported for the following: N#C/C(=N/Nc1ccc(C(F)(F)F)cc1)C(=O)C1CC1
Result: 0.897

Q: Give the value of normalized growth reported for the following: FC(F)(F)c1ccc(C2Sc3ccccc3N=C3c4ccccc4CC32)cc1 (stereo unspecified)
Result: 0.999

Q: Give the value of normalized growth reported for the following: Oc1ccc(-n2nnnc2SCc2ccc(OC(F)(F)F)cc2)cc1
Result: 0.738

Q: Give the value of normalized growth reported for the following: CCCCCc1ccc(S(=O)(=O)Nc2ncc(C)cc2Br)cc1
Result: 0.856

Q: Give the value of normalized growth reported for the following: COc1ccc(/C(C#N)=C2C=C/C(=N/O)C(Cl)=C\2)cc1
Result: 0.85

====

Can you tell me normalized growth for the items I'm about to list?
assay: chemical genetic growth profiling, strain panel (AID 1159580);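 also: tested at 20 µM; growth read once vehicle control cultures reached saturation at 30 °C; 1 = growth at the plate median or of vehicle wells; lower values mean less growth of the strain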; settings: S. cerevisiae deletion strains, growth OD, locus YML120C, strain ndi1, active compounds read low
The whole screen tested about 5,500 compounds, of which about 2,000 (36%) were called active. About 18% were inconclusive and are not listed. The list shows a part of the results.
Please reply with the value in numeric form only.

Q: Give the value of normalized growth reported for the following: N#Cc1ccc2c(c1)N(CCCN1CCC(O)CC1)c1ccccc1S2
Result: 0.994

Q: Give the value of normalized growth reported for the following: CC(=O)c1ccc2c(c1)N(CCCN(C)C)c1ccccc1S2
Result: 0.969

Q: Give the value of normalized growth reported for the following: C[C@H]1C(=O)O[C@@H]2CCN3CC=C(COC(=O)[C@](C)(O)[C@]1(C)O)[C@H]23
Result: 0.988

Q: Give the value of normalized growth reported for the following: CC1(C)C[C@@H]2C(=O)CC[C@H]3O[C@]3(C)CC[C@H]21
Result: 0.999

Q: Give the value of normalized growth reported for the following: CN1CCN(CCCN2c3ccccc3Sc3ccc(Cl)cc32)CC1
Result: 0.823

Q: Give the value of normalized growth reported for the following: OCCN1CCN(CCCN2c3ccccc3Sc3ccc(Cl)cc32)CC1
Result: 1
